- testMethodNotes: qHTS Assay for inhibitors of the human cytomegalovirus (HCMV); note: % is set by controls: 0 for no effect and ±100 for the full control effect
- measurementConditions: HFF cells, HCMV-luciferase reporter, 72 h; at 57.5 µM; stronger effect = lower value
Hit rate of the full screen: of about 410,000 compounds, about 18,000 (4.4%) were called active. About 7% were inconclusive and are not listed. The entries come from a sample that favours actives as a whole.
measuredQuantity: activity change, negative = inhibition (%)

molecule	measuredQuantity	unitOfMeasurement	numericValue
Cc1ccc(SCC(=O)Nc2ccc3oc(-c4ccccc4F)nc3c2)cc1	activity change, negative = inhibition	%	68.8
CC(Sc1ccc(S(=O)(=O)N2CCN(C)CC2)cn1)C(=O)NC1CCCC(C)C1C (stereo not given)	activity change, negative = inhibition	%	-4.06
Cc1oc2c(c1C(=O)Nc1ccc(F)c(F)c1)C1=NCCN1C=N2	activity change, negative = inhibition	%	-2.2
CC(=O)Nc1ccc(S(=O)(=O)NC2(C(F)(F)F)C(=O)NC(C)=C2C#N)cc1 (stereo not given)	activity change, negative = inhibition	%	-29.9
CCOc1ccc(CCNC(=O)CN(c2ccc(C)cc2)S(=O)(=O)N(C)C)cc1OCC	activity change, negative = inhibition	%	-14.8
Cc1cc(C)c(/C=C/c2onc(C)c2S(=O)(=O)N2CCC(C(=O)Nc3ccc(Cl)cc3C)CC2)c(C)c1	activity change, negative = inhibition	%	-20.3
COc1ccc(Nc2cc(Sc3ccc(OC)cc3)ncn2)cc1	activity change, negative = inhibition	%	-88.8
COc1ccc(NC2=CC(=S)NC(C)(C)C2)cc1	activity change, negative = inhibition	%	42.8
Cc1ccc(CNC(=O)CCCNC(=O)c2ccc(Cl)cc2)n1C	activity change, negative = inhibition	%	43.4
C=CS(=O)c1sc(Cl)c(N2CCOCC2)c1[N+](=O)[O-] (stereo not given)	activity change, negative = inhibition	%	-29.1

====

- testMethodNotes: qHTS Assay for inhibitors of the human cytomegalovirus (HCMV); note: % is set by controls: 0 for no effect and ±100 for the full control effect
- measurementConditions: HFF cells, HCMV-luciferase reporter, 72 h; at 57.5 µM; stronger effect = lower value
Out of some 410,000 compounds screened, about 18,000 (4.4%) were called active. About 7% were inconclusive and are not listed. The full list was thinned out, with actives kept by preference.
compounds and their reported activity change, negative = inhibition
measuredQuantity: activity change, negative = inhibition

compound	result
Cc1cc2c(cc1C)[n+](C)cn2CC(O)COCC1CC=CCC1 (centres undefined)	-71.1% (active)
Cc1ccc(C)c(N2CCN(C(=O)C3CCC(CNS(=O)(=O)c4cccs4)CC3)CC2)c1 (centres undefined)	-30% (inactive)
CNP1(NC)=Nc2nn(-c3ccccc3)c(N)c2C(c2ccccc2)=N1	43.5% (inactive)
CC(OC(=O)CN1C(=O)C2CCCCC2C1=O)C(=O)Nc1ncc(Cl)cc1Cl (centres undefined)	22.5% (inactive)
Cc1ccc(Cl)cc1NC(=O)CSc1nccn1C	-11.3% (inactive)
Fc1ccc(C(Nc2ccc(Cl)c(C(F)(F)F)c2)c2nnc(-c3ccccc3)o2)cc1 (centres undefined)	-0.379% (inactive)
Cc1noc(C)c1S(=O)(=O)N(C)C[C@H]1Oc2c(NC(=O)Nc3ccc4c(c3)OCO4)cccc2C(=O)N([C@H](C)CO)C[C@@H]1C	22.1% (inactive)
Cc1nn(-c2ccccc2)c2c1C(c1cccc([N+](=O)[O-])c1)N(c1ccccc1)C(=O)N2 (centres undefined)	-9.36% (inactive)
O=C(Nc1ccc(Br)cc1)c1cc2nc(-c3ccccc3)cc(-c3ccccc3)n2n1	22.2% (inactive)

Where do these numbers come from? They come from PubChem BioAssay AID1259415.
